Data credit: PubChem BioAssay AID624305

assay.details: qHTS assay for re-activators of p53 using a Luc reporter: Hit Validation; also: nearly all actives have a fitted effect of over 75% in size
experimental.conditions: p53-responsive luciferase reporter cells, luminescence, H1299 line expressing heat-sensitive Ala138Val p53; series mostly up to 46.1 µM
Inconclusive results are not listed. Activity calls are given as the source filed them. Calls follow the shape of the dose curve; as a rule, active = well fitted activation curve with a large enough effect; inconclusive = small, poorly fitted or top-dose-only effect; inactive = no such curve, though single readings can be large or run the other way.
Field 'call' accepts active, inactive

                                   molecule     group
0                 COc1ccccc1C(=O)CSc1nccn1C  inactive
1  O=[N+]([O-])c1ccc(NC(=S)NCCc2ccc(F)cc2)cc1  inactive
2     C=CCn1c(C)cc(C(=O)CSc2nc3ccccc3o2)c1C    active
3  COCCN(Cc1cn[nH]c1-c1ccc2cc(OC)ccc2c1)C(C)C  inactive
4      O=C(O)c1ccc(N/N=C/c2ccc3ncccc3c2)cc1    active
5         N#CC(Cc1ccccc1)(Cc1ccccc1)C(=O)NN  inactive
6  O=C(c1ccc(N2CCN(S(=O)(=O)c3ccccc3)CC2)c([N+](=O)[O-])c1)N1CCOCC1  inactive
7          CCN(CC)C(=O)CSC(=Nc1ccccc1F)NC#N    active

Status in this test for COc1ccc(N(C(=O)Nc2ccc(Cl)cc2)C2=NCCC2)cc1 ?
inactive

Status in this test for O=[N+]([O-])c1cc(C(F)(F)F)ccc1NCCc1c[nH]c2ccccc12 ?
inactive

Status in this test for O=C(N/N=C/c1sc(=O)[nH]c1-[n+]1ccc2ccccc2c1)c1ccccc1[O-] ?
inactive

Status in this test for Cc1ccc(S(=O)(=O)NCC(=O)NCC(=O)N2CCC(C)CC2)cc1 ?
inactive

Status in this test for CCCCNC(=S)N(Cc1c(C)noc1C)c1ccccc1 ?
inactive

Status in this test for Cc1occc1C(=O)NNC(=S)Nc1ccccc1C(F)(F)F ?
active

Status in this test for CNC(=S)N/N=C/c1cc(Br)cc(Br)c1O ?
inactive

Status in this test for O=C(Cc1ccccc1)Nc1ccc(NC(=O)c2cccnc2)cc1 ?
inactive
